Where these numbers come from: patent US20260242478A1

Target: T1, anti-CD28 scFv (VH - linker 1 - VL) (biotinylated (site not given))
T1 construct: Biotinylated scFv captured on neutravidin coated plates in the panning ELISA
T1 sequence (scFv, as listed by the source): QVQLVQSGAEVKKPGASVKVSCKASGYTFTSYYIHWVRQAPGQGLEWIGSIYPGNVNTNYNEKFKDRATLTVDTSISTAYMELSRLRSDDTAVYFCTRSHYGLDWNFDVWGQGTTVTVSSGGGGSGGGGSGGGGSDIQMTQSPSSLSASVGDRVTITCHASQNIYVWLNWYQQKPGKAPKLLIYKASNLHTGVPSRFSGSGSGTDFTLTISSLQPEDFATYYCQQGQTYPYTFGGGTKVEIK
Assay: phage ELISA as above; wells pre-incubated with soluble CD28 as competitor;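 further: crude clonal phage supernatants tested, with bound phage detected by HRP-conjugated anti-M13 antibody, and reference wells given blocking buffer without CD28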
Where no end group is shown, it is not given here.
This section presents binders with their documented CD28 scFv signal in presence of CD28 values.

- Binder: "MDWCPRDLWDLCFF [Phage-104]"
  CD28 scFv signal in presence of CD28: 0.156
- Binder: "MDWCPKYLWDVCFN (cysteine pairing not given here; also: displayed on phage as fusion to pIII, linker not given here) [Phage-98]"
  CD28 scFv signal in presence of CD28: 0.422
- Binder: "MDWCPKDLWDYCFA (cysteine pairing not given here; also: displayed on phage as fusion to pIII, linker not given here) [Phage-97]"
  CD28 scFv signal in presence of CD28: 0.165
- Binder: "MDWCPIYLWDECFN [Phage-106]"
  CD28 scFv signal in presence of CD28: 0.215
- Binder: "MDWCPRYLWTECFN (cysteine pairing not given here; also: phage-displayed pIII fusion, pIII and linker not given here) [Phage-100]"
  CD28 scFv signal in presence of CD28: 0.549
